# protocolText: Log P by HPLC on reversed phase columns (EEC directive 79/831 Annex V.A8)
# Type: physicochemical
# testParameters: method [a]: LC-UV, acidic range, 0.1% formic acid in water and acetonitrile
measureName: LogP

Some solved entries appear below for comparison.
COC(=O)c1sc(Cl)c(Br)c1Cl [II.027] | 3.94^[a]
O=C(O)c1sc(C(F)F)c(Br)c1Br [II.099] | 2.51^[a]

Query (compound): O=C(N[C@H]1CCCNC1=O)c1sc(Cl)c(Br)c1Cl [I.0939] ; field requested: LogP
2.29^[a]

###

# protocolText: Log P by HPLC on reversed phase columns (EEC directive 79/831 Annex V.A8)
# Type: physicochemical
# testParameters: LogP method [a]; compounds of formula (I), Table 1.1
# Procedure: In the above tables, measurement of Log P values was performed according to EEC directive 79/831 Annex V.A8 by HPLC (High Performance Liquid Chromatography) on reversed phase columns with the following methods: • ^[a] […] Lambda-max-values were determined using UV-spectra from 200 nm to 400 nm and the peak values of the chromatographic signals.
measureName: LogP

Please review the following examples before continuing.
CCOC(=O)C(CCSC)NC(=O)c1sc(Br)c(C#N)c1Br (stereo not shown) | 3.55^[a]
O=C(NC1(C(=O)O)CC1)c1cc(I)c(I)s1 | 2.08^[a]
CCOC(=O)C1(NC(=O)c2sc(Br)c(Cl)c2F)CC1 | 3.09^[a]

If you can, please state the reported LogP value of CCOC(=O)CNC(=O)c1cc(F)c(Br)s1 .
2.28^[a]
